- experimental-target: glucose-6-phosphate dehydrogenase-6-phosphogluconolactonase (Plasmodium falciparum 3D7)
- assay-comment: inhibition of P. falciparum G6PD activity – biochemical, end-point NADPH detection, orthogonal assay, dose response (AID 540252)
- condition: purified PfG6PD enzyme, NADPH direct detection
Active and inactive are the calls of the source. The rule behind the calls is not given here.
For each of the molecules below, state its IC50.

Would you please look over these solved cases?
- molecule: "O=C1C=C(NCCc2cc(Br)c(O)c(Br)c2)C(=O)c2ncccc21"
  IC50: "> 80 µM (inactive)"
- molecule: "CC(SCC(=O)Nc1ccccc1)c1nc2ccccc2c(=O)[nH]1 (stereo unspecified)"
  IC50: "> 80 µM (inactive)"
- molecule: "Cc1cc(C(=O)O)ccc1-n1c(C)cc(C=C2C(=O)c3ccccc3C2=O)c1C"
  IC50: "> 80 µM (inactive)"
- molecule: "CCn1c(SCC(=O)Nc2ccccc2OC)nnc1-c1cnccn1"
  IC50: "> 80 µM (inactive)"
- molecule: "Cc1cc(SCC(=O)N/N=C/c2ccco2)nc2ccccc12"
  IC50: "> 80 µM (inactive)"
- molecule: "Cc1ccc2nc(SCC(=O)NC3CCCc4ccccc43)[nH]c2c1 (stereo unspecified)"
  IC50: "> 80 µM (inactive)"

Required: IC50, one value per molecule below.
1. CCOc1ccc(N(CC(=O)N/N=C/c2cc([N+](=O)[O-])ccc2Cl)S(C)(=O)=O)cc1
2. Cc1ccc2nc(-c3ccc(NC(=S)NC4CC(C)(C)NC(C)(C)C4)cc3)sc2c1

Resp:
1: > 80 µM (inactive); 2: > 80 µM (inactive)

* * *

- experimental-target: glucose-6-phosphate dehydrogenase-6-phosphogluconolactonase (Plasmodium falciparum 3D7)
- assay-comment: inhibition of P. falciparum G6PD activity – biochemical, end-point NADPH detection, orthogonal assay, dose response (AID 540252)
- condition: purified PfG6PD enzyme, NADPH direct detection
Activity calls are given as the source filed them. No rule for the calls is given here.
endpoint-name: IC50

Example compounds with recorded IC50:
- molecule: "CCOc1ccc(CNc2ccc(N3CCCC3)cc2)cc1"
  endpoint-name: "IC50"
  value: "> 80 µM (inactive)"
- molecule: "O=c1c2ccccc2sn1-c1ccc(S(=O)(=O)N2CCCC2)cc1"
  endpoint-name: "IC50"
  value: "36.6 µM"
- molecule: "CCOC(=O)c1c(OCC)[nH]c2c1cc(O)c1ccccc12"
  endpoint-name: "IC50"
  value: "> 80 µM (inactive)"

Could you tell me IC50 for each of these compounds? They are listed below.
1. O=c1c2ccccc2sn1-c1ccccc1F
2. CCCCOc1ccc(Cc2n[nH]c(=S)n2N)cc1
3. C=CCc1c(C)[nH]c(=S)c(C#N)c1C

Resp:
14.9 µM
> 80 µM (inactive)
> 80 µM (inactive)

Please state, for each entry, its recorded IC50.
1. Nn1c(SCC(=O)Nc2cccnc2Cl)nnc1-c1ccccc1
2. O=C(CN1CCN(c2ccc(O)cc2)CC1)Nc1cc(S(=O)(=O)N2CCOCC2)ccc1Cl
3. c1ccc(-c2cn3c(n2)CCc2ccc4cccnc4c2-3)cc1
4. CC(C)(C)c1ccc(O)c(O)c1
5. COc1ccc(Nc2cc(C)c3c(O)cccc3n2)cc1
6. Cc1ccc(S(=O)(=O)C=CS(=O)(=O)c2ccc(C)cc2)cc1

Resp:
> 80 µM (inactive)
> 80 µM (inactive)
> 80 µM (inactive)
54.8 µM
> 80 µM (inactive)
33.6 µM

This collection of values is drawn from PubChem BioAssay AID540252.
